# TARGET: T1, IL-13RA2 huFc (human)
# T1 construct: Expressed in 293F cells, purified on protein A; also called human IL13RA2; recombinant IL-13RA2
# T1 sequence (chain, as listed by the source limits assumed): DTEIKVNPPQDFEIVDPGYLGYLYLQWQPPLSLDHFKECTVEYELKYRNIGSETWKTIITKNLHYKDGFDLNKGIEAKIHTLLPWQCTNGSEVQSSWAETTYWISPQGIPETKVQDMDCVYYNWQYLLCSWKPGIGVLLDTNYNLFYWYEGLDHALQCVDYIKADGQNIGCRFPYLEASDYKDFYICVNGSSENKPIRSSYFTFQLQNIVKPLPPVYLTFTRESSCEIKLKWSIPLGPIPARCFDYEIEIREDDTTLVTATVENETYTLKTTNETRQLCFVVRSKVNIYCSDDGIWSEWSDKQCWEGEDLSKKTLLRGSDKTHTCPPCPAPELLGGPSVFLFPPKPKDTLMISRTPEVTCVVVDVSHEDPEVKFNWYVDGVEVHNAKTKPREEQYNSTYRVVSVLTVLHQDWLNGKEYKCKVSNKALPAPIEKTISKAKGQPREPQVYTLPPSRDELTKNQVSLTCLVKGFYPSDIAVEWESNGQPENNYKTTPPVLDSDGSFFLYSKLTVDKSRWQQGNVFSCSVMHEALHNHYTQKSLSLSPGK
# ASSAY PROCEDURE: SPR (Biacore T200), nickel-purified scFv
VALUE KIND: koff (s⁻¹)
Report the figure in s⁻¹ without appending any unit label.

Name the recorded koff for 1D11 (scFv) (scFv, also called clone 1D11) scFv: EVQLLESGGGLVQPGGSLRLSCAASGFTFGTIPMSWVRQAPGKGLEWVSSISGSAGSTYYADSVKGRFTISRDNSKNTLYLQMNSLRAEDTAVYYCAKVRYGWGAGAFDYWGQGTLVTVSSGGGGSGGGGSGGGGSDIQMTQSPSTLSASVGDRVTITCRASQSISSWLAWYQQKPGKAPKLLIYDASSLESGVPSRFSGSGSGTEFTLTISSLQPDDFATYYCQQYDTYPPITFGQGTKVEIK .
0.000386

// provenance: patent US20190359723A1
